# target_system: T1, PSD-95 PDZ1-2 dual domain (residues 55-249) (human, UniProt P78352 55-249)
# T1 construct: PSD-95 (Disks large homologue 4, SAP-90), human, residues 55-249 of UniProt P78352 [98-292 of P78352-2]; PDZ1, 8-residue linker, PDZ2; cleaved construct 20.8 kDa; ends printed as NGT- and -SNA; Vector pOPINF; SASBDB entries: apo SASDGE5, SASDGF5, SASDGG5; with GSH SASDGH5, SASDGJ5, SASDGK5; also called apo:PDZ1-2; dual PDZ domain; source: E. coli BL21(DE3), purified (Ni-NTA, HRV 3C tag cleavage, …)
# T1 sequence (P78352 other isoform, or with tags, fused parts or gaps): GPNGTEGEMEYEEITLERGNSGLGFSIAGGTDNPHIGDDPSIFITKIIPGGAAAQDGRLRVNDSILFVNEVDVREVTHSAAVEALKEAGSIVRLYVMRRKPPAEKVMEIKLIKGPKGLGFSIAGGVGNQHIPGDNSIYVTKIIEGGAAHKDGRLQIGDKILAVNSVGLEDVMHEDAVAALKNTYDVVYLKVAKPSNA
# experiment: ITC; 5 mM RRESEI in the syringe, PDZ1-2, PDZ1 or PDZ2 in the cell at nominal 0.13 mM; 25°C; 20 mM Tris-HCl, 150 mM NaCl, pH8.5; MicroCal VP-ITC; PDZ1-2 fitted assuming a single class of sites
# protocol_conditions: both partners purified
pKd: −log10 of the molar value.
result_type: pKd

binder | result_type | endpoint_result
RRESEI (last 6 residues of the inwardly rectifying potassium channel Kir2.1 (C-terminus, type I PDZ motif ESEI); also called RRESEI ligand; ligand peptide; source: synthetic peptide, 98% purity (Peptide Protein Research Ltd.)) [RRESEI peptide (last 6 residues of Kir2.1)] | pKd | 4.05
